Please respond with reported viability at 28.5 h, 10 µM for every item in the list.
- method: in vitro
- assay.conditions: human, hela cells, % viability
One number for each entry, in %.

Cn1c(=O)c2c(nc(Nc3ccc(Cl)cc3Cl)n2CC(=O)O)n(C)c1=O ... 90.5

Go through the list and state viability at 28.5 h, 10 µM for each entry.
1. O=C1c2ccccc2C(=O)N1CCc1nc2ccccc2c(=O)n1-c1nc2ccccc2s1
2. C=CCn1c(-c2sc(NC(=O)c3[nH]c4c(c3C)C(=O)CC(C)(C)C4)nc2C)n[nH]c1=S
3. CSC(C)C(=O)N(C)C1CCN(c2ncnc3ccccc23)CC1 (stereo not drawn)
4. CN1CCN(c2ccc(-c3cc(NC4CCCCC4)ncn3)cn2)CC1
5. COCCNC(=O)c1ccc(-c2ccc(OC)cc2)nc1N1CCN(C(=O)c2ccco2)CC1
6. Cc1nnc(NS(=O)(=O)c2ccc(OC(F)(F)F)cc2)s1
7. CCn1c(=O)c(C=Cc2cc(OC)c(O)c(OC)c2)nc2cc(C(=O)O)ccc21
8. CCNC(=O)Nc1ccc2c(-c3cccc(C(F)(F)F)c3)ccnc2n1

Out:
[122, 91, 83.4, 96.7, 88.1, 95.9, 85.1, 93.7]
